Below is a list of entries, each paired with its recorded pIC50 value.
target: full-length beta-Catenin (Uniprot ID P35222) (Homo sapiens, UniProt P35222); construct: 10 nM full-length beta-Catenin (Uniprot ID P35222); test: Fluorescence polarization IC50 (beta-catenin / 5FAM-TCF4 10-53 competition); type: binding; details: fluorescence polarization; read-out: beta-Catenin FP IC50
Sequence (P35222 whole entry): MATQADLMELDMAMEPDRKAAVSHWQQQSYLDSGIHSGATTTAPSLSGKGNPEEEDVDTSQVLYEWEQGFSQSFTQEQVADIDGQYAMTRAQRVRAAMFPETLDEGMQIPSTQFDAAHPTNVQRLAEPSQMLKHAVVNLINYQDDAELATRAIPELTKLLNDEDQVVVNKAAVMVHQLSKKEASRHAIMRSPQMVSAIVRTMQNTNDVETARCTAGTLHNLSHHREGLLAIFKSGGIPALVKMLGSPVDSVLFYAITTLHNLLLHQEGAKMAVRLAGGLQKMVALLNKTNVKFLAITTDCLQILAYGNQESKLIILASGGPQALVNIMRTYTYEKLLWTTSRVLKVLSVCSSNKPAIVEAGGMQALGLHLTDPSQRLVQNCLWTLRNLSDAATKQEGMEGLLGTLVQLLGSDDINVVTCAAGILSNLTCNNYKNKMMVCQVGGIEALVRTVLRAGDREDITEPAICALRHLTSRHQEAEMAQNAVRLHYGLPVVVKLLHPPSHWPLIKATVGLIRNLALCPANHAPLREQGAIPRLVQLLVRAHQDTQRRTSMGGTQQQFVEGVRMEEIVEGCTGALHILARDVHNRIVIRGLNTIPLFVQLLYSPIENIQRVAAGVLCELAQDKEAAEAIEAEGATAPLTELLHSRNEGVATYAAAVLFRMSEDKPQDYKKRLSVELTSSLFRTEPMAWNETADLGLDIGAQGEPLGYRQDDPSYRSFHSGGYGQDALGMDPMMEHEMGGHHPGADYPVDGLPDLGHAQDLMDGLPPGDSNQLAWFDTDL
pIC50: −log10 of the molar value.
assayReadout: pIC50

compound="CC(=O)N1CCC[C@]12CC=CCCCC1(CCCC=CCCCCCC[C@@](C)(C(=O)N[C@@H](Cc3ccccc3)C(=O)N[C@@H](Cc3csc4ccccc34)C(=O)N[C@@H](CCC(N)=O)C(N)=O)NC(=O)[C@H](CC(N)=O)NC(=O)[C@H](Cc3ccccc3)NC(=O)[C@H](C)NC(=O)[C@H](C)NC(=O)[C@H](CN(CC(=O)O)CC(F)(F)F)NC(=O)[C@H](CC(=O)O)NC1=O)NC(=O)[C@H](CC(C)(C)C)NC(=O)[C@H](CC(=O)O)NC2=O (some centres unmarked)" assayreadout=pIC50 valuemeasured=7.24
compound="CC(=O)N1CCC[C@]12CC=CCCCC1(CCCC=CCCCOC(=O)N3CC[C@@](C(=O)N[C@@H](Cc4ccsc4)C(=O)N[C@@H](Cc4c[nH]c5cccc(F)c45)C(=O)N[C@@H](CCC(N)=O)C(N)=O)(C3)NC(=O)[C@H](CC(C)C)NC(=O)[C@H](Cc3ccccc3)NC(=O)[C@H](C)NC(=O)[C@H](C)NC(=O)[C@H](CC(=O)O)NC(=O)[C@H](CC(=O)O)NC1=O)NC(=O)[C@H](CC(C)(C)C)NC(=O)[C@H](CC(=O)O)NC2=O (some centres unmarked)" assayreadout=pIC50 valuemeasured=7.17
compound="CC(=O)N1CCC[C@]12CC=CCCCC1(CCCC=CCCCOC(=O)N3CC[C@@](C(=O)N[C@@H](Cc4ccccc4Cl)C(=O)N[C@@H](Cc4csc5ccccc45)C(=O)N[C@@H](CC(N)=O)C(=O)N[C@@H](C)C(=O)N[C@@H](C)C(=O)N[C@H](C)C(N)=O)(C3)NC(=O)[C@H](CC(C)C)NC(=O)[C@H](Cc3ccccc3)NC(=O)[C@H](C)NC(=O)[C@H](C)NC(=O)[C@H](Cc3cccc(C(=O)O)c3)NC(=O)[C@H](CC(=O)O)NC1=O)NC(=O)[C@H](CC(C)(C)C)NC(=O)[C@H](CC(=O)O)NC2=O (some centres unmarked)" assayreadout=pIC50 valuemeasured=7.80
compound="CC(=O)N1CCC[C@]12CC=CCCCC1(CCCC=CCCCOC(=O)N3CC[C@@](C(=O)N[C@@H](Cc4cccc(-c5ccccc5)c4)C(=O)N[C@@H](Cc4ccccc4)C(=O)N[C@@H](CCC(N)=O)C(N)=O)(C3)NC(=O)[C@H](CC(C)C)NC(=O)[C@H](Cc3ccccc3)NC(=O)[C@H](C)NC(=O)[C@H](C)NC(=O)[C@H](Cc3cccc(C(=O)O)c3)NC(=O)[C@H](CC(=O)O)NC1=O)NC(=O)[C@H](CC(C)(C)C)NC(=O)[C@H](CC(=O)O)NC2=O (some centres unmarked)" assayreadout=pIC50 valuemeasured=5.73
compound="CC(=O)N1CCC[C@]12CC=CCCCC1(CCCC=CCCCOC(=O)N3CC[C@@](C(=O)N[C@@H](Cc4ccsc4)C(=O)N[C@@H](Cc4csc5ccccc45)C(=O)N[C@@H](CCC(N)=O)C(N)=O)(C3)NC(=O)[C@H](CC(N)=O)NC(=O)[C@H](Cc3ccccc3)NC(=O)[C@H](C)NC(=O)[C@H](C)NC(=O)[C@H](CC(=O)O)NC(=O)[C@H](CC(=O)O)NC1=O)NC(=O)[C@H](CC(C)(C)C)NC(=O)[C@H](Cn1cc(CC(C)(C)C(=O)O)nn1)NC2=O (some centres unmarked)" assayreadout=pIC50 valuemeasured=5.42
